Reference for the values: paper PMC6949242

TESTED_SYSTEM: FOXO1 DNA-binding domain (UniProt Q12778)
METHOD: NMR
EXPERIMENTAL_SETUP: FOXO1 alone; fit of residue G161 peak; 50 mM Bis-Tris, 150 mM NaCl, pH 6.5; ITC at 25 °C; NMR 1H-15N HSQC with 100 uM FOXO1
ENDPOINT_NAME: Kd
Provide the measurement as a number trailed by its unit.

Return the recorded Kd value; entry: TGACGCACCGGAAGTTAGG (double strand) [ω-high] 122 µM

###

TESTED_SYSTEM: FOXO1 DNA-binding domain (UniProt Q12778)
METHOD: NMR
EXPERIMENTAL_SETUP: FOXO1 alone; mean of selected peaks, fast exchange; 50 mM Bis-Tris, 150 mM NaCl, pH 6.5; ITC at 25 °C; NMR 1H-15N HSQC with 100 uM FOXO1
ENDPOINT_NAME: Kd (µM)
Write down the numeric answer in µM and omit the unit.

Please give measured Kd of the following entry: TGACGCACCGGAAGTTAGG (double strand) [ω-high] 167

###

TESTED_SYSTEM: FOXO1 DNA-binding domain (UniProt Q12778)
METHOD: ITC
EXPERIMENTAL_SETUP: FOXO1 alone; 50 mM Bis-Tris, 150 mM NaCl, pH 6.5; ITC at 25 °C; NMR 1H-15N HSQC with 100 uM FOXO1
ENDPOINT_NAME: Kd (nM)
Write down the numeric answer in nM and omit the unit.

# CHAIN_SEQUENCE, ENDPOINT_RESULT
measured = [
    ("AAAACAACAGGAAGTATTT (double strand) [ω]", 352),
]

Let me know recorded Kd for CTGTAAACAGGAAGTGGAG (double strand) [ω-none] , thanks. 24

###

TESTED_SYSTEM: FOXO1 DNA-binding domain;ETS1 R409A R409A (UniProt Q12778+P14921)
METHOD: ITC
EXPERIMENTAL_SETUP: FOXO1 titrated into equimolar ETS1 R409A + DNA; Kd of FOXO1; 50 mM Bis-Tris, 150 mM NaCl, pH 6.5; ITC at 25 °C; NMR 1H-15N HSQC with 100 uM FOXO1
ENDPOINT_NAME: pKd
// pKd here means minus log10 of the molar concentration (mol/L)

Answer with reported pKd of AAAACAACAGGAAGTATTT (double strand) [ω] 6.82
